Ref: ChEMBL document CHEMBL4819108

protocol: Selectivity index, ratio of IC50 for African green monkey Vero cells to IC50 for antiplasmodial activity against CQ-resistant Plasmodium falciparum W2
Format: toxicity
experimental_parameters: read-out: Ratio IC50
Grouping rule (selectivity ratio): range A = under 100, range B = from 100 up to 2000, range C = 2000 and over

Enquiry: Which category fits this record: `O=C(O)c1ccc2c(c1)C(=O)N(CCCCCCNc1ccnc3cc(Cl)ccc13)C2=O`
Return: range B

Enquiry: GET /class?item= `O=C(NNC(=O)c1ccc(N2C(=O)c3ccccc3C2=O)cc1)c1ccncc1`
Return: range A

Enquiry: Category lookup for the compound `O=C(O)c1ccc2c(c1)C(=O)N(CCCCCCCCNc1ccnc3cc(Cl)ccc13)C2=O`
Return: range C

Enquiry: Please classify: `O=C(NNC(=O)c1ccc2c(c1)C(=O)N(CCCCCCCCNc1ccnc3cc(Cl)ccc13)C2=O)c1ccncc1`
Return: range C

Enquiry: Class for `O=C(NCCNc1ccnc2cc(Cl)ccc12)c1ccc2c(c1)C(=O)N(NC(=O)c1ccncc1)C2=O` ?
Return: range B

Enquiry: Pick a category. Item: `O=C(NCCCNc1ccnc2cc(Cl)ccc12)c1ccc2c(c1)C(=O)N(NC(=O)c1ccncc1)C2=O`
Return: range B

Enquiry: Which selectivity ratio category applies to `O=C(NCCCCCCCCNc1ccnc2cc(Cl)ccc12)c1ccc2c(c1)C(=O)N(NC(=O)c1ccncc1)C2=O` here?
Return: range B

Enquiry: Band assignment needed for `O=C(NN1C(=O)c2ccc(C(=O)OCCNc3ccnc4cc(Cl)ccc34)cc2C1=O)c1ccncc1` please.
Return: range B

Enquiry: Field: class (selectivity ratio) — entry: `O=C(CN1C(=O)c2ccccc2C1=O)NNC(=O)c1ccncc1`
Return: range A
